- Assay Target: MDM2 (Homo sapiens, UniProt Q00987)
- Sequence (Q00987 1-125): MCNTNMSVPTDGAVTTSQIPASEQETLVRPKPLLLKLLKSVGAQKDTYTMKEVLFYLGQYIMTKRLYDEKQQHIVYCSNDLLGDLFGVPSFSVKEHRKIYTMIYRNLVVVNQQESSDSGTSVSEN
- Test Protocol: Competitive fluorescence polarization assay for MDM2
- Type: binding
- Measurement Setup: competitive FP assay, MDM2; read-out: Ki (MDM2)
pKi: −log10 of the molar value. Where a SMILES comes first, the peptide text is derived from it. Bridges are numbered along the chain shown (N, C = ends). [ ]: non-standard residue; d: D form. R8 = C=CCCCCCC[C@@](C)(N)C(=O)O; S5 = C=CCCC[C@](C)(N)C(=O)O; Nle = CCCC[C@H](N)C(=O)O
Readout Type: pKi

q: Requested read-out pKi, target or system MDM2 (Homo sapiens, UniProt Q00987), entry CCCC[C@H](NC(=O)[C@H](C)NC(=O)[C@H](C)NC(=O)[C@]1(C)CCCC=CCCCCCC[C@@](C)(NC(=O)[C@H](Cc2ccccc2)NC(=O)[C@@H](NC(=O)[C@H](C)NC(=O)[C@H](C)NC(C)=O)[C@@H](C)O)C(=O)N[C@@H](C)C(=O)N[C@@H](Cc2ccc(O)cc2)C(=O)N[C@@H](Cc2c[nH]c3ccccc23)C(=O)N[C@@H](C)C(=O)N[C@@H](CCC(N)=O)C(=O)N[C@@H](CC(C)C)C(=O)N1)C(=O)N[C@@H](C)C(N)=O [compound 319] (Ac-AATF[R8]AYWAQL[S5]AA[Nle]A-NH2; staple 5-12)
a: 7.00 to 8.00

====

For each of the compounds below, state its pKi.
- Assay Target: MDM2 (Homo sapiens)
- Test Protocol: Competitive fluorescence polarization assay for MDM2
- Format: binding
- Measurement Setup: Ki (MDM2), competitive FP assay, MDM2
pKi: −log10 of the molar value. Where a SMILES comes first, the peptide text is derived from it. Bridges are numbered along the chain shown (N, C = ends). [ ]: non-standard residue; d: D form. R8 = C=CCCCCCC[C@@](C)(N)C(=O)O; S5 = C=CCCC[C@](C)(N)C(=O)O

q: Requested read-out pKi, target or system MDM2 (Homo sapiens), entry CC(=O)N[C@@H](CC(C)C)C(=O)N[C@H](C(=O)N[C@@H](Cc1ccccc1)C(=O)N[C@]1(C)CCCCCCC=CCCC[C@@](C)(C(=O)N[C@H](C)C(N)=O)NC(=O)[C@H](CC(C)C)NC(=O)[C@H](CCC(N)=O)NC(=O)[C@H](C)NC(=O)[C@H](Cc2c[nH]c3ccccc23)NC(=O)[C@H](Cc2ccc(O)cc2)NC(=O)[C@H](CCC(=O)O)NC1=O)[C@@H](C)O [compound 589] (Ac-LTF[R8]EYWAQL[S5][dA]-NH2; staple 4-11)
a: > 8.00

q: Also, CC(=O)N[C@@H](CC(C)C)C(=O)N[C@H](C(=O)N[C@@H](Cc1ccccc1)C(=O)N[C@]1(C)CCCCCCC=CCCC[C@@](C)(C(=O)N[C@@H](C)C(=O)N[C@@H](C)C(=O)N[C@@H](C)C(=O)N[C@@H](C)C(=O)N[C@@H](C)C(=O)N[C@@H](C)C(=O)N[C@H](C)C(N)=O)NC(=O)[C@H](CC(C)C)NC(=O)[C@H](CCC(N)=O)NC(=O)[C@H](C)NC(=O)[C@H](Cc2c[nH]c3ccccc23)NC(=O)[C@H](Cc2ccc(O)cc2)NC(=O)[C@H](C)NC1=O)[C@@H](C)O (single isomer, unassigned) [compound 317] please.
a: 7.00 to 8.00

====

- Assay Target: MDM2 (Homo sapiens, UniProt Q00987)
- Test Protocol: Competitive fluorescence polarization assay for MDM2
- Type: binding
- Measurement Setup: competitive FP assay, MDM2; read-out: Ki (MDM2)
pKi: −log10 of the molar value. Where a SMILES comes first, the peptide text is derived from it. Bridges are numbered along the chain shown (N, C = ends). [ ]: non-standard residue; d: D form. R8 = C=CCCCCCC[C@@](C)(N)C(=O)O; S5 = C=CCCC[C@](C)(N)C(=O)O; Nle = CCCC[C@H](N)C(=O)O
Readout Type: pKi

q: Requested read-out pKi, target or system MDM2 (Homo sapiens, UniProt Q00987), entry CCCC[C@H](NC(=O)[C@H](C)NC(=O)[C@H](C)NC(=O)[C@]1(C)CCCC=CCCCCCC[C@@](C)(NC(=O)[C@H](Cc2ccccc2)NC(=O)[C@@H](NC(=O)[C@H](C)NC(=O)[C@H](C)NC(C)=O)[C@@H](C)O)C(=O)N[C@@H](CCC(=O)O)C(=O)N[C@@H](Cc2ccc(O)cc2)C(=O)N[C@@H](Cc2c[nH]c3ccccc23)C(=O)N[C@@H](C)C(=O)N[C@@H](CCC(N)=O)C(=O)N[C@@H](CC(C)C)C(=O)N1)C(=O)N[C@@H](C)C(N)=O [compound 374] (Ac-AATF[R8]EYWAQL[S5]AA[Nle]A-NH2; staple 5-12)
a: > 8.00

====

- Test Protocol: Circular dichroism (CD) analysis of alpha-helicity
- Format: physicochemical
- Measurement Setup: benign CD buffer pH 2, 0% TFE, 222 nm, 4° C.
Where a SMILES comes first, the peptide text is derived from it. Bridges are numbered along the chain shown (N, C = ends). [ ]: non-standard residue; d: D form. R8 = C=CCCCCCC[C@@](C)(N)C(=O)O; S5 = C=CCCC[C@](C)(N)C(=O)O
Readout Type: Molar Ellipticity Benign (222 in 0% TFE) (deg cm2 dmol-1)
Field format: number, assumed deg cm2 dmol-1, no unit text.

q: I have this molecule here, CC(=O)N[C@@H](CC(C)C)C(=O)N[C@H](C(=O)N[C@@H](Cc1ccccc1)C(=O)N[C@]1(C)CCCCCCC=CCCC[C@@](C)(C(=O)N[C@@H](Cc2c[nH]cn2)C(=O)N[C@@H](Cc2c[nH]cn2)C(=O)N[C@@H](CC(C)C)C(=O)N[C@H](C)C(N)=O)NC(=O)[C@H](CC(C)C)NC(=O)[C@H](CCC(N)=O)NC(=O)[C@H](C)NC(=O)[C@H](Cc2c[nH]c3ccccc23)NC(=O)[C@H](Cc2ccc(O)cc2)NC(=O)[C@H](C)NC1=O)[C@@H](C)O [compound 43] (Ac-LTF[R8]AYWAQL[S5]HHL[dA]-NH2; staple 4-11) , and I need its recorded Molar Ellipticity Benign (222 in 0% TFE).
a: −15334.5

q: Also, CC(=O)N[C@@H](CC(C)C)C(=O)N[C@H](C(=O)N[C@@H](Cc1ccccc1)C(=O)N[C@]1(C)CCCCCCC=CCCC[C@@](C)(C(=O)N[C@@H](CO)C(=O)N[C@@H](C)C(=O)N[C@@H](Cc2ccccc2)C(N)=O)NC(=O)[C@H](CC(C)C)NC(=O)[C@H](CCC(N)=O)NC(=O)[C@H](C)NC(=O)[C@H](Cc2c[nH]c3ccccc23)NC(=O)[C@H](Cc2ccc(O)cc2)NC(=O)[C@H](C)NC1=O)[C@@H](C)O [compound 7] (Ac-LTF[R8]AYWAQL[S5]SAF-NH2; staple 4-11) please.
a: 124

====

For each of the compounds below, state its Ki.
- Assay Target: MDM2 (Homo sapiens)
- Test Protocol: Competitive fluorescence polarization assay for MDM2
- Type: binding
- Measurement Setup: competitive FP assay, MDM2; read-out: Ki (MDM2)
Where a SMILES comes first, the peptide text is derived from it. Bridges are numbered along the chain shown (N, C = ends). [ ]: non-standard residue; d: D form. R8 = C=CCCCCCC[C@@](C)(N)C(=O)O; Cba = N[C@@H](CC1CCC1)C(=O)O; S5 = C=CCCC[C@](C)(N)C(=O)O

q: I have this compound here, CC(=O)N[C@@H](CC(C)C)C(=O)N[C@H](C(=O)N[C@@H](Cc1ccccc1)C(=O)N[C@]1(C)CCCCCCC=CCCC[C@@](C)(C(=O)N[C@@H](CO)C(=O)O)NC(=O)[C@H](CC2CCC2)NC(=O)[C@H](CCC(N)=O)NC(=O)[C@H](C)NC(=O)[C@H](Cc2c[nH]c3ccccc23)NC(=O)[C@H](Cc2ccc(O)cc2)NC(=O)[C@H](CCC(=O)O)NC1=O)[C@@H](C)O [compound 594] (Ac-LTF[R8]EYWAQ[Cba][S5]S-OH; staple 4-11) , and I need its recorded Ki.
a: < 10 nM

q: Also, CC[C@H](C)[C@H](NC(C)=O)C(=O)N[C@H](C(=O)N[C@@H](Cc1ccccc1)C(=O)N[C@]1(C)CCCCCCC=CCCC[C@@](C)(C(=O)N[C@@H](C)C(=O)N[C@@H](CCC(=O)O)C(=O)N[C@@H](Cc2ccccc2)C(=O)N[C@@H](C)C(N)=O)NC(=O)[C@H](CC(C)C)NC(=O)[C@H](CCC(N)=O)NC(=O)[C@H](C)NC(=O)[C@H](Cc2c[nH]c3ccccc23)NC(=O)[C@H](Cc2c[nH]cn2)NC(=O)[C@H](Cc2ccccc2)NC1=O)[C@@H](C)O [compound 186] (Ac-ITF[R8]FHWAQL[S5]AEFA-NH2; staple 4-11) please.
a: < 10 nM
